Item-by-item account of viability, T/C
system: 168753-222-R-J1-PDC complex spheroid viability; test: Anticancer human tumor 168753-222-R-J1-PDC patient-derived bladder carcinoma cell line growth inhibition [CLK]; settings: second compound 0.316 µM; first compound 0.316 µM; hits give low values

These solved cases illustrate the format of a correct answer.
COC1C=CCC(C)C(C)S(=O)(=O)NC(=O)c2ccc3c(c2)N(CC2CCC21)CC1(CCCc2cc(Cl)ccc21)CO3 (centres undefined) + CN1CCN(c2cc(C(=O)Nc3cc4cc(-c5cnn(C)c5)ccc4cn3)ccn2)CC1    13.3%
CCN1CCN(Cc2ccc(Nc3ncc(F)c(-c4cc(F)c5nc(C)n(C(C)C)c5c4)n3)nc2)CC1 + CN1CCN(c2cc(C(=O)Nc3cc4cc(-c5cnn(C)c5)ccc4cn3)ccn2)CC1    10.7%

Which viability, T/C value belongs to O=c1[nH]cc(F)c(=O)[nH]1 + CN1CCN(c2cc(C(=O)Nc3cc4cc(-c5cnn(C)c5)ccc4cn3)ccn2)CC1 ?
8.13%

Note, next up: O=C(c1cc(Cc2n[nH]c(=O)c3ccccc23)ccc1F)N1CCN(C(=O)C2CC2)CC1 + CNC(=O)c1ccc(Nc2nc(OC3CCCC3)c3c(-c4ccc5nc(C)oc5c4)c[nH]c3n2)c(OC)c1
68.2%

====

system: 168753-222-R-J1-PDC complex spheroid viability; experiment: Anticancer human tumor 168753-222-R-J1-PDC cell line growth inhibition [CLK]; conditions: second compound 0.316 µM; first compound 0.1 µM; active = viability on the fitted dose curve at most 10% of control; inactive = the rest;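 also: luminescence signal used as surrogate for viable cell amount; viability measured after seven days of drug exposure; 100% = DMSO vehicle control wells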
Select the correct class. Options are active, inactive and nothing else.

What is the recorded call for this compound in the test? CCc1c2c(nc3ccc(O)cc13)-c1cc3c(c(=O)n1C2)COC(=O)[C@]3(O)CC + CNC(=O)c1ccc(Nc2nc(OC3CCCC3)c3c(-c4ccc5nc(C)oc5c4)c[nH]c3n2)c(OC)c1
inactive

Note, next up: CC(Nc1ccc2c(c1)OCCn1cc(N3C(=O)OCC3C(F)F)nc1-2)C(N)=O (stereo not given) + CN1CCN(c2cc(C(=O)Nc3cc4cc(-c5cnn(C)c5)ccc4cn3)ccn2)CC1
inactive

Note, next up: C=C(F)C(=O)N1CCN(c2nc(OCC3CCCN3C)nc3c2CCN(c2cccc4cccc(Cl)c24)C3)CC1CC#N (stereo not given) + CN1CCN(c2cc(C(=O)Nc3cc4cc(-c5cnn(C)c5)ccc4cn3)ccn2)CC1
inactive

Note, next up: Nc1ccn(C2OC(CO)C(O)C2(F)F)c(=O)n1 (stereo not given) + CNC(=O)c1ccc(Nc2nc(OC3CCCC3)c3c(-c4ccc5nc(C)oc5c4)c[nH]c3n2)c(OC)c1
inactive

Note, next up: CC1(C)CCC(CN2CCN(c3ccc(C(=O)NS(=O)(=O)c4ccc(NCC5CCOCC5)c([N+](=O)[O-])c4)c(Oc4cnc5[nH]ccc5c4)c3)CC2)=C(c2ccc(Cl)cc2)C1 + CNC(=O)c1ccc(Nc2nc(OC3CCCC3)c3c(-c4ccc5nc(C)oc5c4)c[nH]c3n2)c(OC)c1
inactive

Note, next up: CC1(C)CCC(CN2CCN(c3ccc(C(=O)NS(=O)(=O)c4ccc(NCC5CCOCC5)c([N+](=O)[O-])c4)c(Oc4cnc5[nH]ccc5c4)c3)CC2)=C(c2ccc(Cl)cc2)C1 + CN1CCN(c2cc(C(=O)Nc3cc4cc(-c5cnn(C)c5)ccc4cn3)ccn2)CC1
active

Note, next up: Cn1ncnc1[C@H]1c2n[nH]c(=O)c3cc(F)cc(c23)N[C@@H]1c1ccc(F)cc1 + CN1CCN(c2cc(C(=O)Nc3cc4cc(-c5cnn(C)c5)ccc4cn3)ccn2)CC1
active

Note, next up: CCN1CCN(Cc2ccc(Nc3ncc(F)c(-c4cc(F)c5nc(C)n(C(C)C)c5c4)n3)nc2)CC1 + CNC(=O)c1ccc(Nc2nc(OC3CCCC3)c3c(-c4ccc5nc(C)oc5c4)c[nH]c3n2)c(OC)c1
inactive

Note, next up: C#Cc1c(F)ccc2cc(O)cc(-c3ncc4c(N5CC6CCC(C5)N6)nc(OCC56CCCN5CC(F)C6)nc4c3F)c12 (stereo not given) + CNC(=O)c1ccc(Nc2nc(OC3CCCC3)c3c(-c4ccc5nc(C)oc5c4)c[nH]c3n2)c(OC)c1
inactive

Note, next up: O=C(c1cc(Cc2n[nH]c(=O)c3ccccc23)ccc1F)N1CCN(C(=O)C2CC2)CC1 + CNC(=O)c1ccc(Nc2nc(OC3CCCC3)c3c(-c4ccc5nc(C)oc5c4)c[nH]c3n2)c(OC)c1
inactive

Note, next up: CCCS(=O)(=O)Nc1ccc(F)c(C(=O)c2c[nH]c3ncc(-c4ccc(Cl)cc4)cc23)c1F + CN1CCN(c2cc(C(=O)Nc3cc4cc(-c5cnn(C)c5)ccc4cn3)ccn2)CC1
inactive

Note, next up: C=C(F)C(=O)N1CCN(c2nc(OCC3CCCN3C)nc3c2CCN(c2cccc4cccc(Cl)c24)C3)CC1CC#N (stereo not given) + CNC(=O)c1ccc(Nc2nc(OC3CCCC3)c3c(-c4ccc5nc(C)oc5c4)c[nH]c3n2)c(OC)c1
inactive

Note, next up: Nc1ccccc1NC(=O)c1ccc(CNC(=O)OCc2cccnc2)cc1 + CNC(=O)c1ccc(Nc2nc(OC3CCCC3)c3c(-c4ccc5nc(C)oc5c4)c[nH]c3n2)c(OC)c1
inactive

Note, next up: COc1c(OCCCN2CCOCC2)ccc2c3n(c(=NC(=O)c4cnc(N)nc4)nc12)CCN3 + CN1CCN(c2cc(C(=O)Nc3cc4cc(-c5cnn(C)c5)ccc4cn3)ccn2)CC1
active

Note, next up: COc1ccc([C@@H](O)c2cc(-c3ncnc4cc(N5CCOCC5)ccc34)c(F)cc2Cl)nn1 + CNC(=O)c1ccc(Nc2nc(OC3CCCC3)c3c(-c4ccc5nc(C)oc5c4)c[nH]c3n2)c(OC)c1
inactive
